# Test system: TAMH mouse liver cell line
# Condition notes: mouse, 24 h
Observable: LD25 (concentration to reduce cell viability by 25 %)

>  <Input smiles>
CCOC(=O)Nc1ccc(CCc2ccc(F)cc2)nc1N

>  <Data value>
25 ± 7 µM

$$$$
>  <Input smiles>
CCCC(=O)Nc1ccc(CNc2ccc(F)cc2)cc1F

>  <Data value>
>63 µM

$$$$
>  <Input smiles>
CCCC(=O)Nc1ncc(CNc2ccc(F)cc2)cc1Br

>  <Data value>
>63 µM

$$$$
>  <Input smiles>
CCOC(=O)Nc1ccc(NCc2ccc(F)cc2)nc1N

>  <Data value>
103 ± 47 µM

$$$$
>  <Input smiles>
Cc1cc(CNc2ccc(F)cc2)ccc1NC(=O)CCn1cccn1

>  <Data value>
>63 µM

$$$$
